B1: Ankyrin-2, residues 3571 to 3650; numbered along this chain, Q01484 (parent)
chain: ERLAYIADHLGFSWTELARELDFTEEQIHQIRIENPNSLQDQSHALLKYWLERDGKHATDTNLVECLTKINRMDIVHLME

# Variants of: B1
# method_notes: abundance fitness (aPCA) (normalised: wild type 0, dead -1); higher = more abundant; growth selection in yeast, the domain comes from the species named
# experimental_parameters: Homo sapiens
Response field class: enum, chosen by comparing abundance fitness against low end (below -0.09), middle (-0.09 to below 0.005), high end (0.005 or more)

// known answers, use as guide
[[record]]
seq_string = "ERLAYIADHLGFSWTELARELDFTEEQIHQIRMENPNSLQDQSHALLKYWLERDGKHATDTNLVECLTKINRMDIVHLME"
class_name = "high end"

[[record]]
seq_string = "ERLAYIADHLGFSWTELARELDFTEEQIHQIRIENPHSLQDQSHALLKYWLERDGKHATDTNLVECLTKINRMDIVHLME"
class_name = "middle"

[[record]]
seq_string = "ERLAYIADHLGFSWTELARELDFTEEQIHQIRIENPNSLQDQSYALLKYWLERDGKHATDTNLVECLTKINRMDIVHLME"
class_name = "low end"

[[record]]
seq_string = "ERLAYIASHLGFSWTELARELDFTEEQIHQIRIENPNSLQDQSHALLKYWLERDGKHATDTNLVECLTKINRMDIVHLME"
class_name = "high end"

[[record]]
seq_string = "ERLAYIADHLGFSWTELARELDFTEEQIHQIRIENPDSLQDQSHALLKYWLERDGKHATDTNLVECLTKINRMDIVHLME"
class_name = "middle"


## Input Bin this entry: `ERLAYIADHLGFSWLELARELDFTEEQIHQIRIENPNSLQDQSHALLKYWLERDGKHATDTNLVECLTKINRMDIVHLME`
## Output high end

## Input Bin this entry: `ERLAYIADHLGFSWTELARELDFTEEQIHQIRIECPNSLQDQSHALLKYWLERDGKHATDTNLVECLTKINRMDIVHLME`
## Output middle

## Input Bin this entry: `ERLAYIADHLGFSWTELARELDFTEEQIHQIRIENPNSLQGQSHALLKYWLERDGKHATDTNLVECLTKINRMDIVHLME`
## Output high end

## Input Bin this entry: `ERLAYIADHLGFSWTELARELDFTEEQIHQIRIENPNSLQDQSHALLKYWLERDGTHATDTNLVECLTKINRMDIVHLME`
## Output middle

## Input Bin this entry: `ERLAYIADHLGFSWTELANELDFTEEQIHQIRIENPNSLQDQSHALLKYWLERDGKHATDTNLVECLTKINRMDIVHLME`
## Output high end

## Input Bin this entry: `ERLAYIADHLGFSWTELARELDFTEEQIHQYRIENPNSLQDQSHALLKYWLERDGKHATDTNLVECLTKINRMDIVHLME`
## Output low end

## Input Bin this entry: `ERLAYIADHLGFSWTELMRELDFTEEQIHQIRIENPNSLQDQSHALLKYWLERDGKHATDTNLVECLTKINRMDIVHLME`
## Output low end

## Input Bin this entry: `ERLAYIADHLKFSWTELARELDFTEEQIHQIRIENPNSLQDQSHALLKYWLERDGKHATDTNLVECLTKINRMDIVHLME`
## Output middle

## Input Bin this entry: `ERLAYIADHLGFSWTELARELDFTEEQIHQIRIENPGSLQDQSHALLKYWLERDGKHATDTNLVECLTKINRMDIVHLME`
## Output middle

## Input Bin this entry: `ERLAYIADHLGFSWTELARELDFTEEYIHQIRIENPNSLQDQSHALLKYWLERDGKHATDTNLVECLTKINRMDIVHLME`
## Output low end

## Input Bin this entry: `ERLAYIADHLGFSWTELARELDFTEEQIHQIRIENPNSLQDQSHALLKMWLERDGKHATDTNLVECLTKINRMDIVHLME`
## Output high end

## Input Bin this entry: `ERLAYIADHLGFSWTELARELDFTEEQIHQIRIEIPNSLQDQSHALLKYWLERDGKHATDTNLVECLTKINRMDIVHLME`
## Output middle

## Input Bin this entry: `ERLAYIADHLGFSWTELARELDFTREQIHQIRIENPNSLQDQSHALLKYWLERDGKHATDTNLVECLTKINRMDIVHLME`
## Output low end

## Input Bin this entry: `ERTAYIADHLGFSWTELARELDFTEEQIHQIRIENPNSLQDQSHALLKYWLERDGKHATDTNLVECLTKINRMDIVHLME`
## Output middle

## Input Bin this entry: `ERLAYIADHLGFSWTHLARELDFTEEQIHQIRIENPNSLQDQSHALLKYWLERDGKHATDTNLVECLTKINRMDIVHLME`
## Output high end

## Input Bin this entry: `ERLAYIAGHLGFSWTELARELDFTEEQIHQIRIENPNSLQDQSHALLKYWLERDGKHATDTNLVECLTKINRMDIVHLME`
## Output low end

## Input Bin this entry: `ERLAYWADHLGFSWTELARELDFTEEQIHQIRIENPNSLQDQSHALLKYWLERDGKHATDTNLVECLTKINRMDIVHLME`
## Output low end

## Input Bin this entry: `ERLAYIADHLGFSWTELARELDFTEEQIHQIRIENPNSLQDQSHALLKYWLERDKKHATDTNLVECLTKINRMDIVHLME`
## Output low end

## Input Bin this entry: `ERLAYIADHLGFSWTELARELDFTEEQIHQIRIENPNSLQDQSHALLKYWLERDLKHATDTNLVECLTKINRMDIVHLME`
## Output middle

## Input Bin this entry: `ERLAYIADHLGFSWTELARELDFTEEQIHQIRIENPNSLQDQSHALLKYWLEWDGKHATDTNLVECLTKINRMDIVHLME`
## Output middle

## Input Bin this entry: `ERLAYIADHLGFSWTELARELDFTEEQIHQIHIENPNSLQDQSHALLKYWLERDGKHATDTNLVECLTKINRMDIVHLME`
## Output high end

## Input Bin this entry: `ERLAYIADHAGFSWTELARELDFTEEQIHQIRIENPNSLQDQSHALLKYWLERDGKHATDTNLVECLTKINRMDIVHLME`
## Output low end

## Input Bin this entry: `ERLAYIADHLGFSWTELARELDFTEEQIHQIRIENPNSLQDQSHALLKYWLERDGEHATDTNLVECLTKINRMDIVHLME`
## Output high end
